molecular target: human delta receptor (Homo sapiens); construct: 6110549; test: radioligand binding, human delta receptor, HEK-293 cell membranes; details: cell not marked (rat), species not given, read-out: δ
pKi: −log10 of the molar value.
We begin with a simple list: items and their reported pKi.
endpointName: pKi

compound | testValue
C[C@@H]1CN([C@@H](c2cccc(O)c2)c2cccc(C(=O)N3CCN(CC(=O)O)CC3)c2)[C@@H](C)CN1Cc1ccc(F)cc1 [Example 116] | 9.08
CCOC(=O)CCN1CCCN(C(=O)c2cccc([C@H](c3cccc(O)c3)N3C[C@@H](C)N(CC4CC4)C[C@@H]3C)c2)CC1 | 6.92
C=CCN1C[C@H](C)N([C@@H](c2cccc(O)c2)c2cccc(C(=O)N3CCC(O)CC3)c2)C[C@H]1C [Example 134] | 9.44

###

We begin with a simple list: items and their reported pKi.
target: human delta receptor (Homo sapiens); construct: 6110549; experiment: radioligand binding, human delta receptor, HEK-293 cell membranes; conditions: cell not marked (rat), species not given, read-out: δ
pKi: −log10 of the molar value.
endpointName: pKi

molecule | endpointName | testValue
CCOC(=O)CCCCCCN1CCCN(C(=O)c2cccc(C(c3cccc(O)c3)N3C[C@@H](C)N(Cc4ccccc4)C[C@@H]3C)c2)CC1 (stereo partly drawn) | pKi | 8.62
C[C@@H]1CN([C@@H](c2cccc(O)c2)c2cccc(C(=O)N3CCN(CCCCC(=O)O)CC3)c2)[C@@H](C)CN1Cc1cccc(F)c1 | pKi | 7.77
CCOC(=O)CCCCN1CCCN(C(=O)c2cccc(C(c3cccc(O)c3)N3C[C@@H](C)N(Cc4cccc(F)c4)C[C@@H]3C)c2)CC1 (stereo partly drawn) | pKi | 8.21
C[C@@H]1CN(C(c2cccc(O)c2)c2cccc(C(=O)N3CCCN(CCCCCCC(=O)O)CC3)c2)[C@@H](C)CN1Cc1ccccc1 (stereo partly drawn) | pKi | 8.31
C=CCN1C[C@H](C)N([C@@H](c2cccc(O)c2)c2cccc(C(=O)N3CCC(=CC(=O)O)CC3)c2)C[C@H]1C | pKi | 9.20
C[C@@H]1CN([C@@H](c2cccc(O)c2)c2cccc(C(=O)N3CCN(CCCC(=O)O)CC3)c2)[C@@H](C)CN1Cc1ccccc1 | pKi | 8.24

###

molecular target: human delta receptor (Homo sapiens, UniProt P41143); construct: 6110549; assay: radioligand binding, human delta receptor, HEK-293 cell membranes; settings: cell not marked (rat), species not given, read-out: δ
Sequence (P41143 whole entry): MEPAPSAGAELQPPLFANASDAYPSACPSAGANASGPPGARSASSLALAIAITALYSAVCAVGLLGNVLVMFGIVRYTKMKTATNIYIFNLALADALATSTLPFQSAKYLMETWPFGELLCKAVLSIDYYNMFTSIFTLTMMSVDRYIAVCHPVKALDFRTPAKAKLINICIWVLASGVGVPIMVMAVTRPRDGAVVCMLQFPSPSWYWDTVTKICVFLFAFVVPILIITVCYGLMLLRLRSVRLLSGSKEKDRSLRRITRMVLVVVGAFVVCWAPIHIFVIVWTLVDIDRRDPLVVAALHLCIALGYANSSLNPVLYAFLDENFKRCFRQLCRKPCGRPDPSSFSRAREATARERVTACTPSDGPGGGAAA
We begin with a simple list: items and their reported Ki.

molecule | measureUnit | Ki
C=CCN1C[C@H](C)N(C(c2cccc(O)c2)c2cccc(C(=O)N3CCCN(CCCCCC(=O)O)CC3)c2)C[C@H]1C (stereo partly drawn) | nM | 5.3
CCOC(=O)CCCN1CCCN(C(=O)c2cccc(C(c3cccc(O)c3)N3C[C@@H](C)N(CC4CC4)C[C@@H]3C)c2)CC1 (stereo partly drawn) | nM | 10.3
CCOC(=O)CCCCCN1CCN(C(=O)c2cccc([C@H](c3cccc(O)c3)N3C[C@@H](C)N(Cc4cccc(F)c4)C[C@@H]3C)c2)CC1 [Example 98] | nM | 7.1

###

We begin with a simple list: items and their reported Ki.
target: human mu opioid receptor (Homo sapiens)
Sequence (P35372 whole entry): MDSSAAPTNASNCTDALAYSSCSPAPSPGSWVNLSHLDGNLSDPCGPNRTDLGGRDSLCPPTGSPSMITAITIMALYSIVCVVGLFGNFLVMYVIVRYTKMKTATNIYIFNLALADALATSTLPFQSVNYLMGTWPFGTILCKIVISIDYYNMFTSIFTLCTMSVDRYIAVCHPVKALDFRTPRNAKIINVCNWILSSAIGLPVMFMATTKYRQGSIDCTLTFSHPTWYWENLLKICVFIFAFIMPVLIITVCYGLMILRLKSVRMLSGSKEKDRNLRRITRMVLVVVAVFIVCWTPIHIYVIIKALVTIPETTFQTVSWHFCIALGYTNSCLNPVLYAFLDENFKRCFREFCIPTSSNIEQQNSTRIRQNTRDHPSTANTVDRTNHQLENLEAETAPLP
endpointName: Ki (nM)

compound | measureUnit | testValue
C[C@@H]1CN(C(c2cccc(O)c2)c2cccc(C(=O)N3CCCN(CCCCCCC(=O)O)CC3)c2)[C@@H](C)CN1CC1CC1 (stereo partly drawn) | nM | 40.7
CCOC(=O)CN1CCCN(C(=O)c2cccc(C(c3cccc(O)c3)N3C[C@@H](C)N(Cc4cccc(F)c4)C[C@@H]3C)c2)CC1 (stereo partly drawn) | nM | 2.6
CCOC(=O)C1CCN(C(=O)c2cccc([C@H](c3cccc(O)c3)N3C[C@@H](C)N(CC4CC4)C[C@@H]3C)c2)CC1 [Example 126] | nM | 1.5
